Each entry below carries its reported Activity.
- test name: Substrate activity at ADH101 (unknown origin) assessed as specific enzyme activity using NADH as cofactor at 2.5 to 10 mM measured for 30 mins in presence of 20% hexane-Tris HCL buffer by UV-Vis spectroscopy analysis
- conditions: Homo sapiens, dose 2.5-10 mM
Returns: string containing the number followed by the unit.

These solved cases illustrate the format of a correct answer.
1. CC(=O)c1cnc2ccccc2c1 :: 13.7 nmol/min/mg
2. CC(=O)c1nccn1C :: 14.7 nmol/min/mg
3. CC(=O)C1CCCCC1 :: 52.3 nmol/min/mg

In: Output measured Activity for this item: CC(=O)c1ccc(F)cc1
Out: 22.9 nmol/min/mg

In: For the compound O=C(c1ccccc1)c1ccccc1 , give its reported Activity.
Out: 73.9 nmol/min/mg

In: For the compound CC(=O)c1ccc(N)cc1 , give its reported Activity.
Out: 43.9 nmol/min/mg

In: Give Activity for CC(=O)c1cccc(O)c1
Out: 14.8 nmol/min/mg

In: Fill in reported Activity for this entry: CC(=O)c1ccc(Br)cc1
Out: 73.1 nmol/min/mg

In: Name the recorded Activity of the item CC(=O)/C=C/c1ccccc1 in your answer.
Out: 67.2 nmol/min/mg

In: State, in one line, measured Activity of CC(=O)c1cccc(Br)c1
Out: 12.2 nmol/min/mg

In: Given the compound COc1ccc(C(C)=O)cc1OC , write its reported Activity.
Out: 59.8 nmol/min/mg

In: State its Activity for this compound: CC(=O)c1ccccn1
Out: 35.5 nmol/min/mg

In: Fill in Activity for record CC(=O)c1ccc(Cl)nc1
Out: 62.5 nmol/min/mg
